Let's look at some compounds and their measured % inhibition Apo pol 10' 10.
TGT: P. falciparum apicoplast DNA polymerase (Pf-apPOL) (Plasmodium falciparum)
Sequence (Q8ILY1 entry or part of it): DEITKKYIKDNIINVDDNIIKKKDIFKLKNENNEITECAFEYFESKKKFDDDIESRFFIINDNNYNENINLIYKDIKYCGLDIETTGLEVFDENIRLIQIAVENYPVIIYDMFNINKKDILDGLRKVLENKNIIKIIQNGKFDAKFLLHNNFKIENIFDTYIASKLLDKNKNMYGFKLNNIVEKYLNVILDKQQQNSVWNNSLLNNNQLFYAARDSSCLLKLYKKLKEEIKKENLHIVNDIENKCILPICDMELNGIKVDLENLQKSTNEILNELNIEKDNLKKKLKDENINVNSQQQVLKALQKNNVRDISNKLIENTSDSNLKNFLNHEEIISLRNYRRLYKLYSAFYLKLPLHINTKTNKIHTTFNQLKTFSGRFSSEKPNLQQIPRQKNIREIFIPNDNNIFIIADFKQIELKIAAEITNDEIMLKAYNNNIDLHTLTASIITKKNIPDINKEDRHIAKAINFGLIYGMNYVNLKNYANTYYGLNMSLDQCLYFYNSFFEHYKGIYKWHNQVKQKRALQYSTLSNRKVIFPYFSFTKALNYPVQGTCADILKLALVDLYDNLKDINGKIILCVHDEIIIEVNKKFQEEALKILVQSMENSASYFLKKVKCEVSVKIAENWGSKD
ASSAY_PROTOCOL: Fluorescence-based high-throughput DNA polymerase assay (molecular beacon), primary screen and dose-response
Format: biochemical
MEASUREMENT_SETUP: DRC-1; read at 10'; concentration 10
Numeric answer only, unit % assumed.

Some compounds with known % inhibition Apo pol 10' 10 results, for comparison:
>  <COMPOUND>
COc1ccc(/C=C/c2cc(C(=O)O)c3ccccc3n2)cc1 [Molecule 5, COc1ccc(cc1)/C=C/c1nc2ccccc2c(c1)C(=O)O]

>  <% inhibition Apo pol 10' 10 (%)>
61.7052

$$$$
>  <COMPOUND>
CC(=O)Nc1cc(C(=O)c2cccs2)nn(-c2ccc(Cl)cc2)c1=O [KU0267905]

>  <% inhibition Apo pol 10' 10 (%)>
23.8402

$$$$
>  <COMPOUND>
CCCc1ccc(Oc2coc3cc(OC)ccc3c2=O)cc1 [KU0193249]

>  <% inhibition Apo pol 10' 10 (%)>
11.6444

$$$$
>  <COMPOUND>
Cc1ccsc1Cn1c(C)ccc1C [Molecule 70, Cc1ccsc1Cn1c(C)ccc1C]

>  <% inhibition Apo pol 10' 10 (%)>
19.8551

$$$$
>  <COMPOUND>
Cn1nc(-c2nnc(-c3ccccc3F)o2)c2c1CCN(C(=O)c1ccccc1Cl)C2 [Molecule 34]

>  <% inhibition Apo pol 10' 10 (%)>
52

$$$$
>  <COMPOUND>
CC(=O)OCC1=C(C(=O)[O-])N2C(=O)[C@@H](NC(=O)Cc3cccs3)[C@H]2SC1.[Na+] [Molecule 73]

>  <% inhibition Apo pol 10' 10 (%)>
38.6298

$$$$

q: // map O=C1CSC2=NC3=C(CCc4ccccc43)C(c3cccs3)N12 (stereo not shown) [Molecule 59, O=C1CSC2=NC3=C(C(N12)c1cccs1)CCc1c3cccc1] to recorded % inhibition Apo pol 10' 10 (system: P. falciparum apicoplast DNA polymerase (Pf-apPOL) (Plasmodium falciparum))
a: 41.1279

q: Consider next the compound COc1ccccc1CC(=O)N1CCc2c(nc3cc(-c4ccccc4Cl)[nH]n3c2=O)C1 [Molecule 49] in the same way.
a: 40

q: And what about the compound CC(C)CC(C(=O)O)N1C(=O)C2C3C=CC(C2C1=O)C1C(=O)N(C(CC(C)C)C(=O)O)C(=O)C31 (stereo not shown) [KU0193449] ?
a: 13.4113

q: Another compound: Cc1cc2[nH]c(C(=O)Nc3ccc(F)cc3)c(CN3CCOCC3)c2s1 [Molecule 60]
a: 25.0572

q: And O=C(CCc1csc(NC(=O)Nc2ccccc2)n1)Nc1nc2ccccc2s1 [KU0177354] ?
a: 43.0217

q: Thanks! And Nc1cc(Oc2ccc(O)c(N)c2)ccc1O [KU0034728] ?
a: 55.4709

q: Entry C#CC(C=CC)OC(=O)c1ccccc1C(=O)O (stereo not shown) [Molecule 61, CC=CC(OC(=O)c1ccccc1C(=O)O)C#C] please
a: 32.6686
